molecular target: hCA I (Homo sapiens (Human), UniProt P00915); conditions: read-out: KI (nM) Activity hCAI; Table 1
Sequence (P00915 whole entry): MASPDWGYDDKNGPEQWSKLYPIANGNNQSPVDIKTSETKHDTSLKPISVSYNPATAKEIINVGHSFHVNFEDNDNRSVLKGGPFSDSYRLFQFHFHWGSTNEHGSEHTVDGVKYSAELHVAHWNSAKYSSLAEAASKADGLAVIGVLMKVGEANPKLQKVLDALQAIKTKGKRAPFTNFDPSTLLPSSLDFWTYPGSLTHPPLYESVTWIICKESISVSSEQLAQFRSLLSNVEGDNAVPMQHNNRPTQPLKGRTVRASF
Each record here notes measured Ki.
Give just the number in nM; leave the unit off.

Answered examples (2):
COc1ccccc1NC(=O)Nc1ccc(S(N)(=O)=O)cc1 92
NS(=O)(=O)c1ccc(NC(=O)Nc2ccc(Oc3ccccc3)cc2)cc1 604

Q: Need Ki, item `N#Cc1ccc(NC(=O)Nc2ccc(S(N)(=O)=O)cc2)cc1`
A: 57

Q: Need Ki, item `N#Cc1ccccc1NC(=O)Nc1ccc(S(N)(=O)=O)cc1`
A: 10.9

----------
target: hCA IX (Homo sapiens (Human)); details: read-out: Ki (nM) hCA IX; Table 3
We label by threshold. Values of Ki strictly beneath 8 nM are true (1). Values of 8 nM and up are false (0).

NS(=O)(=O)c1ccc(NC(=O)Nc2ccccc2F)cc1 true (1)
NS(=O)(=O)c1ccc(NC(=O)Nc2cc(C(F)(F)F)ccc2F)cc1 true (1)
NS(=O)(=O)c1ccc(NC(=O)Nc2ccc(F)c(F)c2F)cc1 false (0)
NS(=O)(=O)c1ccc(NC(=O)Nc2cccc(Cl)c2)cc1 false (0)
NS(=O)(=O)c1ccc(NC(=O)Nc2ccc(Cl)cc2F)cc1 true (1)

Q: Take the molecule `NS(=O)(=O)c1ccc(NC(=O)Nc2cc(F)c(F)cc2F)cc1` and say whether its Ki is less than 8 nM.
A: true (1)

Q: Take the molecule `NS(=O)(=O)c1ccc(NC(=O)Nc2cc(Cl)ccc2Cl)cc1` and say whether its Ki is less than 8 nM.
A: false (0)

Q: Take the molecule `NS(=O)(=O)c1ccc(NC(=O)Nc2ccc(F)cc2F)cc1` and say whether its Ki is less than 8 nM.
A: true (1)
